# Test system: HOP-62
# Test name: NCI tumour cell line growth inhibition, 48 h
The source made the active and inactive calls. Rule as the data show it: active = GI50 up to about 1.1 µM and inactive = higher.
Respond only with the outcome that fits, drawn from active, inactive

Please review the entries below; each comes with its answer.
| Compound | Label class |
| --- | --- |
| Nc1cc2ncnc(Nc3cccc(Br)c3)c2cn1 | inactive |
| CCCCCCCCCCCCCCCCNc1ccn(C2CC(O)C(COC(c3ccccc3)(c3ccccc3)c3ccc(OC)cc3)O2)c(=O)n1 (centres undefined) | inactive |
| COC(=O)c1cc(Br)c(C(=O)C(Cl)(Cl)Cl)[nH]1 | inactive |
| CCC(C)C1NC(=O)CNC(=O)C2Cc3c([nH]c4cc(O)ccc34)[S+]([O-])CC(NC(=O)CNC1=O)C(=O)NC(CC(=O)O)C(=O)N1CC(O)CC1C(=O)NC(C(C)C(O)CO)C(=O)N2 (centres undefined) | active |
| CN(C)c1ccc(/C=C(\NC(=O)c2ccccc2)C2NC(Cc3c[nH]c4ccccc34)C(=O)O2)cc1 (centres undefined) | inactive |

Query: Hi, do you know how Clc1ccccc1-c1nc2cc(C34CC5CC(CC(C5)C3)C4)ccc2[nH]1 came out in this test?
Result: inactive

Query: Similarly, c1csc(-c2csc(-c3ccsc3)c2)c1 ?
Result: inactive

Query: Same lookup for C/C(=C\C(C)COCc1ccccc1)[C@H](COCc1ccccc1)OCc1ccccc1 (some centres undefined) , please.
Result: inactive

Query: Moving on to CC(=O)OC12c3ccccc3C(c3ccccc31)C1C(=O)N(Nc3ccccc3)C(=O)C12 (centres undefined)
Result: inactive

Query: # iterate: CCc1c2c(nc3ccc(O)cc13)-c1cc3c(c(=O)n1C2)COC(=O)[C@]3(O)CC [7-ETHYL-10-HYDROXYCAMPTOTHECIN]
Result: active

Query: Another compound to look at: CN(C)CCNC(=O)c1cccc2[nH]c(-c3ccccn3)nc12
Result: inactive

Query: Please give the result for O=c1ccc2c(Cl)sc(Cl)c2[nH]1 too.
Result: inactive

Query: One more compound: ClCCN(CCCl)c1ccc(CNCCCNCc2ccc(N(CCCl)CCCl)cc2)cc1
Result: inactive

Query: Similarly, COC(=O)c1nc(-c2nc(CCNC(=O)OC(C)(C)C)sc2Cl)sc1Cl ?
Result: inactive

Query: One more compound: CN1CC(c2ccccc2)C(O)(C2(c3ccccc3)CN(C)CC(c3ccccc3)C2=O)C(c2ccccc2)C1 (centres undefined)
Result: inactive

Query: Request: CSC1=N/C(=C\c2ccc(Cl)cc2)C(=O)N1CN1CCCCC1
Result: inactive

Query: What do we get for COc1cc(N(Cc2ccc3oc(=O)c(-c4ccccc4)nc3c2)Cc2ccc3oc(=O)c(-c4ccccc4)nc3c2)cc(OC)c1OC ?
Result: inactive

Query: Now try Cc1cc(=O)n2nc(CSc3nnc(N)s3)sc2n1 .
Result: inactive

Query: Item: CN(C)CCNC(=O)c1cccc2c(NCCN(C)C)c3ccccc3nc12
Result: inactive

----------
# System: RXF 393
# Test name: NCI tumour cell line growth inhibition, 48 h
Activity calls are given as the source filed them. Cut-off read from the data, not from the text of the source: active = GI50 up to about 1.1 µM and inactive = higher.
Attribute measured: GI50

Query: Endpoint output: GI50 of COc1cc(/C=C2/SC(c3ccccc3)N(c3cccc([N+](=O)[O-])c3)C2=O)cc(OC)c1OC (stereo unspecified) . Value?
Result: > 100 µM (inactive)

Query: Another: C=C(Cl)/C(=C/Cl)CCC(Br)C(C)(C)Cl.C=C(Cl)/C(=C\Cl)CCC(Br)C(C)(C)Cl (stereo unspecified)
Result: > 10 µM (inactive)

Query: Try the compound O=C(O)c1ccccc1Sc1ccc(C=C2NC(=S)N(c3ccccc3)C2=O)s1
Result: > 100 µM (inactive)

Query: Can you handle O=c1onc2c3ccccc3ncn12 next?
Result: > 100 µM (inactive)

Query: Please do the same for CCOc1ccccc1NC(=O)CC1C(=O)Nc2ccccc2[S+]1[O-] (stereo unspecified) as well.
Result: 50 µM (inactive)

Query: How about Cc1cc(=O)n2nc(CSc3nnc(N)s3)sc2n1 ?
Result: > 100 µM (inactive)
